// provenance: patent EP0514540B1

Listed here are molecules together with their documented Activity for Increasing PaO2 ΔPaO2.
System: hypoxemia model animals
Assay: Effect on partial pressure of gases in arterial blood, injection system, Method B (acetic acid-induced hypoxemia)
Assay type: in vivo, Male Wister strain rats
Conditions: 2.0% acetic acid intratracheal 0.6 ml/kg, PaO2 60-70 mmHg, intravenous continuous 0.1 mg/kg/min, after minus before administration

C=CCNc1nc(NC(C)c2ccccc2)c2ccn(C)c2n1 (racemic) | +19.7 mmHg
C=CCNc1nc(N2CCOCC2)c2ccn(C)c2n1 | +5.7 mmHg
C=CCNc1nc(NC2CCCc3ccccc32)c2ccn(C)c2n1 (stereo not shown) | +18.1 mmHg
C=CCNc1nc(N(C)C)c2ccn(C)c2n1 | +7.9 mmHg
C=CCNc1nc(NC2CCCCC2)c2ccn(C)c2n1 | +18.4 mmHg
C=CCNc1nc(N(C)CCc2ccccc2)c2ccn(C)c2n1 | +11.3 mmHg

// below: Activity for Increasing PaO2 ΔPaO2 requested for another molecule
In plain terms, C=CCNc1nc(NCCc2ccccc2)c2ccn(C)c2n1 has a documented Activity for Increasing PaO2 ΔPaO2 of +15.4 mmHg
